Target: human LTA4H (Homo sapiens)
Sequence (P09960 1-611): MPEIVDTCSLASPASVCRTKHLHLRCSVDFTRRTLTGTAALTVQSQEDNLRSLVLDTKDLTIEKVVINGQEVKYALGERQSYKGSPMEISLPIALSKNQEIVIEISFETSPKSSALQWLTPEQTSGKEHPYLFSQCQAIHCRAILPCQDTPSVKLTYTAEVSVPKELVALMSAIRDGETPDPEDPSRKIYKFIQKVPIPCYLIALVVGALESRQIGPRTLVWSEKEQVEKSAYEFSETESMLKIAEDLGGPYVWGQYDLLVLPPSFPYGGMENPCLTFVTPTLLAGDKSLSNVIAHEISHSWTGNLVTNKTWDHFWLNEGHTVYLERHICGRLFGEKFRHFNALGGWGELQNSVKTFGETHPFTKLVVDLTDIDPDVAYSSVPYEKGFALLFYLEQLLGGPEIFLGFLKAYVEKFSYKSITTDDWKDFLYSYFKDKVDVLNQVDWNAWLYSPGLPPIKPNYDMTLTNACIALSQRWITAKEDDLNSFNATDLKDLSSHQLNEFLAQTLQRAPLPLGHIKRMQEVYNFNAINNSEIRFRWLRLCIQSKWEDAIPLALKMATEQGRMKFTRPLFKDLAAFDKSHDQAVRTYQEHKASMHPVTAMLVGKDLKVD
experimental.endpoint: log10 of IC50 (log10 of the value in µM)
On a log10 scale: recorded IC50, unit µM.

compound	system.tested	measured.number
CC(O)[C@@H](N)Cc1nc(-c2ccc(Oc3ncc(Br)cc3F)cc2)no1 (mixture of isomers)	human LTA4H (Homo sapiens)	-2.21
C[C@H](Cc1ccccc1)Oc1ccc(-c2noc(C[C@H](N)CO)n2)cc1	human LTA4H (Homo sapiens)	-1.78

Query string: I'm curious: which log10 of IC50 was measured for N[C@H](CO)Cn1nnc(-c2ccc(Oc3ccc(Cl)cn3)cc2)n1 tested on human LTA4H (Homo sapiens)?
Result string: -2.40

Query string: Requested read-out log10 of IC50, target or system human LTA4H (Homo sapiens), entry N[C@H](CO)Cn1nnc(-c2ccc(Oc3ccc(Br)cn3)cc2)n1
Result string: -2.62

Query string: Enter reported log10 of IC50 observed with human LTA4H (Homo sapiens) for N[C@H](CO)Cc1nc(-c2ccc(Oc3ccc(OC(F)F)cn3)cc2)no1
Result string: -1.55
